# Assayed target: recombinant human tryptase, beta, from lung (Homo sapiens)
# Sequence (P20231 31-275): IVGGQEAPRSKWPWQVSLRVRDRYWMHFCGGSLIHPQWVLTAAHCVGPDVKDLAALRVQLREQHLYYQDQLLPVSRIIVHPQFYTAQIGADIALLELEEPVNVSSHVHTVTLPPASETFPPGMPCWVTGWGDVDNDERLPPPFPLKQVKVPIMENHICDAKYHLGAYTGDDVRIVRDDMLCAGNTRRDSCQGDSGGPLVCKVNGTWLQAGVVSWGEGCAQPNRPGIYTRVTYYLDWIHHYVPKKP
# Test name: Inhibition of tryptase activity by coferons (Boc-Gln-Ala-Arg-AMC fluorescence)
# Condition label: coferon monomer alone; 1 nM tryptase
Counter-ions that a name gives are not always drawn.
Measured quantity: IC50 (nM)
Express your answer in nM, writing the number without its unit.

Solved cases (3 shown):
Compound: NCc1cccc(C2CCN(C(=O)c3cccc(OCC(=O)N4C[C@@H](O)[C@@H](O)C4)c3)CC2)c1
Numeric value: 7500

Compound: NCc1cccc(C2CCN(C(=O)c3cccc4cc(B(O)O)ccc34)CC2)c1
Numeric value: 480

Compound: NCc1cccc(C2CCN(C(=O)Cc3ccc(B(O)O)cc3)CC2)c1
Numeric value: 1050

# input for lookup
Data request: Report measured IC50; entry is NCc1cccc(C2CCN(C(=O)/C=C/c3ccc(O)c(O)c3)CC2)c1 [Example 39, hydrochloride]
Data returned: 4300

The reported numbers originate from patent US9771345B2.
